The reported measurements were obtained from PubChem BioAssay (NCI).

Experiment: NCI Yeast Anticancer Drug Screen. Data for the wt1 strain (AID 149);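 further: 0% = growth of vehicle-treated wt1 cultures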
Conditions: S. cerevisiae wt1 strain (SPY 50644) growth inhibition; at 11.0 µM; hits give high values
This is part of a sample that, as a whole, favours compounds with a hit. Of some 79,000 tested, about 15% had one in any assay.
# growth inhibition per record follows
Your answer should be a plain number; it is taken to be in %.

Example entries begin here.
| MOLECULE | QUANTITATIVE READOUT |
| --- | --- |
| CC(C)(C)c1ccc2c(c1)C(=O)c1ccccc1C2=O | 14 |
| N#[N+]c1c([O-])c2ccccc2c2ccccc12 | 15 |
| NC(=O)NC1C(c2ccccc2)=C1c1ccccc1 | 26 |
| O=C(C#Cc1ccccc1)Nc1ccccc1 | -6 |
| Cc1cc2nc3ccccc3n2c2ccccc12 | -39 |

Exam item: Could you share which growth inhibition value was measured for CCN(CC)C(=S)N/N=C(\C)c1ccccc1O ?
Marked response: 28

Exam item: Would you kindly share the measured growth inhibition for O=C(Cc1ccccc1)NNc1nc(NNC(=O)c2ccncc2)nc(Nc2ccc([N+](=O)[O-])cc2)n1 ?
Marked response: 12

Exam item: Item under review: C/C(=N\Sc1ccccc1)c1ccccc1O . Reported growth inhibition?
Marked response: -4

Exam item: Quick one: growth inhibition for Cc1ccc(NC(=O)CCC(=O)C(C)C(=O)c2ccccc2)c(C)c1 (stereo not drawn) ?
Marked response: -1
